Values compiled from ChEMBL document CHEMBL1149117.

What follows is a collection of Ki values obtained with UniProt:P31652.
Sequence (P31652 whole entry): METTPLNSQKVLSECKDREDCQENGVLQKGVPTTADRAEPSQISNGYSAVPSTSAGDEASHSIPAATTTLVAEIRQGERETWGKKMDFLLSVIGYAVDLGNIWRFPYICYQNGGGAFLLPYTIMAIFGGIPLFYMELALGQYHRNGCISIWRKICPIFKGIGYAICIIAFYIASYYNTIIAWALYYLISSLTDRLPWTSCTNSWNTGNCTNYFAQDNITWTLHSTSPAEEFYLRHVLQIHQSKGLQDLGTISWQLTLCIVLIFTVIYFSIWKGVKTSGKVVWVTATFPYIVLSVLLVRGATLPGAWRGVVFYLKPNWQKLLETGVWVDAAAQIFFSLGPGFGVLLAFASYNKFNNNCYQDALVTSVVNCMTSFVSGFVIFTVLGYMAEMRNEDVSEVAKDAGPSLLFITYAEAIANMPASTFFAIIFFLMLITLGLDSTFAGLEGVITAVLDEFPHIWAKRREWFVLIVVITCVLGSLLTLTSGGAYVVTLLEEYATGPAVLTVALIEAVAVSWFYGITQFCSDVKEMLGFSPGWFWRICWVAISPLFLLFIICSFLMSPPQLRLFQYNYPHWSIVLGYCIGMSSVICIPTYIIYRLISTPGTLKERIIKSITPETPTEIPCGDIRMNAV
// note: answer is a bare numeric in nM

response.value for CN1C2CCC1[C@@H](COC(c1ccccc1)c1ccc(Cl)cc1)C(c1ccc(Cl)cc1)C2 (stereo partly specified) (field: Ki) = 462

The reported Ki of the molecule CN1C2CCC1[C@@H](COC(c1ccc(F)cc1)c1ccc(F)cc1)C(c1ccc(Cl)cc1)C2 (stereo partly specified) was 245

Measured Ki of CN1C2CCC1[C@H](COC(c1ccc(F)cc1)c1ccc(F)cc1)C(c1ccc(Cl)cc1)C2 (stereo partly specified) : 724

Lab note: measured Ki of CN1C2CCC1C(CCCOC(c1ccccc1)c1ccccc1)C(c1ccccc1)C2 (stereo unspecified) was 61

Query Cc1ccc(C2CC3CCC([C@@H]2COC(c2ccccc2)c2ccc(Cl)cc2)N3C)cc1 (stereo partly specified) yields Ki of 1000

Field Ki (entry CN1C2CCC1[C@@H](COC(c1ccccc1)c1ccccc1)C(c1ccc(Cl)cc1)C2 (stereo partly specified) ) reads 147
